// MIC lookup, one value per entry
tested on: C. neoformans MMX 0634 ATCC 90112; assay: MIC assay (CLSI microdilution); type: cell-based; settings: Cryptococcus neoformans, ATCC90112, RPMI plus 0.002% Tween-80; read-out: MIC
Numbered stars: 1 amine (or outer) side, 2 acyl side, 3 side chain; on linkers, the order of the positions; unused ones are H or OH. Square brackets hold non-standard residues; d marks the D form. Peptide text beside a SMILES is read from it. X13 = CN([C@@H](Cc1cccc(-c2ccc(N3CCN(C(=O)OC(C)(C)C)CC3)nc2)c1)C(=O)[*:2])[*:1]; X24 = CN([C@@H](Cc1cccc(-c2ccnc(N3CCOCC3)c2)c1)C(=O)[*:2])[*:1]; X28 = CN([C@@H](Cc1cccc(-c2ccc(C(F)(F)F)cc2)c1)C(=O)[*:2])[*:1]; Hmp(2R,3S) = CC[C@H](C)[C@@H](O)C(=O)O; NMeVal(β-OH) = CN[C@H](C(=O)O)C(C)(C)O; NMeV = CN[C@H](C(=O)O)C(C)C
Just the number in mg/L, nothing appended.

Reference set (2 entries):
* CC[C@H](C)[C@@H]1NC(=O)[C@@H]2CCCN2C(=O)[C@H](Cc2cccc(-c3ccc(C(F)(F)F)cc3)c2)N(C)C(=O)[C@H](Cc2ccccc2)NC(=O)[C@H](C(C)C)N(C)C(=O)[C@@H]([C@@H](C)CC)OC(=O)[C@H](C(C)(C)O)N(C)C(=O)[C@H](CC(C)C)NC(=O)[C@H](C(C)C)N(C)C1=O [Compound 3] (cyclo(F[X28]PI[NMeV]L[NMeVal(β-OH)][Hmp(2R,3S)][NMeV])) | 0.12
* CC[C@H](C)[C@@H]1NC(=O)[C@@H]2CCCN2C(=O)[C@H](Cc2cccc(-c3ccnc(N4CCOCC4)c3)c2)N(C)C(=O)[C@H](Cc2ccccc2)NC(=O)[C@H](C(C)C)N(C)C(=O)[C@@H]([C@@H](C)CC)OC(=O)[C@H](C(C)(C)O)N(C)C(=O)[C@H](CC(C)C)NC(=O)[C@H](C(C)C)N(C)C1=O [Compound 21] (cyclo(F[X24]PI[NMeV]L[NMeVal(β-OH)][Hmp(2R,3S)][NMeV])) | 0.25

// next item, MIC requested
In: Form field - read-out: MIC; system: C. neoformans MMX 0634 ATCC 90112; submitted item: CC[C@H](C)[C@@H]1NC(=O)[C@@H]2CCCN2C(=O)[C@H](Cc2cccc(-c3ccc(N4CCN(C(=O)OC(C)(C)C)CC4)nc3)c2)N(C)C(=O)[C@H](Cc2ccccc2)NC(=O)[C@H](C(C)C)N(C)C(=O)[C@@H]([C@@H](C)CC)OC(=O)[C@H](C(C)(C)O)N(C)C(=O)[C@H](CC(C)C)NC(=O)[C@H](C(C)C)N(C)C1=O [Compound 26] (cyclo(F[X13]PI[NMeV]L[NMeVal(β-OH)][Hmp(2R,3S)][NMeV]))
Out: 0.25
